Measured pKi on Kappa (κ) opioid receptor (Homo sapiens, UniProt P41145) follows.
Sequence (P41145 whole entry): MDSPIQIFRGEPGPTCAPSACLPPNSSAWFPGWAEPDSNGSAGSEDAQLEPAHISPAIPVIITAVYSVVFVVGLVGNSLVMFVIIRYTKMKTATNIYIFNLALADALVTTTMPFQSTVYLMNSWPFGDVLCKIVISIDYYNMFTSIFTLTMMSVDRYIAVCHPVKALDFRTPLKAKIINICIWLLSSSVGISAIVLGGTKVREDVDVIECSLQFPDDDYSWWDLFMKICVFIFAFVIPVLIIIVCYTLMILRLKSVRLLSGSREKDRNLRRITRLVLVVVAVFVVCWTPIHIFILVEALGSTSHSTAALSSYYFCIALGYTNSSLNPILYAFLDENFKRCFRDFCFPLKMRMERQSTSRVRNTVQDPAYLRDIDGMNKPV
Numbers only, as −log10 of the molar value.

1. COCCN1C[C@@H](CN2CN(c3ccc(F)cc3)C3(CCN(Cc4cccc5cccc(C)c45)CC3)C2=O)OC1=O
6.24

Parameters: items (list). Returns: pKi for each item.
1. Cc1cccc2cccc(CN3CCC4(CC3)C(=O)N(C[C@H]3CNC(=O)O3)CN4c3ccc(F)cc3)c12
2. Cc1cccc2cccc(CN3CCC4(CC3)C(=O)N(C[C@H]3CN(C)C(=O)O3)CN4c3ccc(F)cc3)c12

Result block:
[6.19, 6.92]

* * *

Biological target: Mu (μ) opioid receptor (Homo sapiens)
Sequence (P35372 whole entry): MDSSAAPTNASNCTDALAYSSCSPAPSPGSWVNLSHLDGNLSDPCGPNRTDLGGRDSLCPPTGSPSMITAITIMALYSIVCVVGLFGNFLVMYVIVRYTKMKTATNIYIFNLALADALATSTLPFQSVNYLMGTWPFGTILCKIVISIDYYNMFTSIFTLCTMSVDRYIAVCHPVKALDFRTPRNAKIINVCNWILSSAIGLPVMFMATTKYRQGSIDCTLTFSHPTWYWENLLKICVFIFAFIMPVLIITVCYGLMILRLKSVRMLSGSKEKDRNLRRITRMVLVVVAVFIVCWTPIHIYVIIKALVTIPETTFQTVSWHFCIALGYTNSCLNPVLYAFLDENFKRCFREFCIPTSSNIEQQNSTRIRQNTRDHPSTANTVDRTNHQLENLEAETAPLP
observed property: pKi
Numbers only, as −log10 of the molar value.

// known answers, use as guide
1. Cc1cccc2cccc(CN3CCC4(CC3)C(=O)N(C[C@H]3CN(C)C(=O)O3)CN4c3ccc(F)cc3)c12
6.44
2. Cc1cccc2cccc(CN3CCC4(CC3)C(=O)N(C[C@H]3CNC(=O)O3)CN4c3ccc(F)cc3)c12
6.13

In the following, a different compound is considered.
Query block: # lookup: pKi of COCCN1C[C@@H](CN2CN(c3ccc(F)cc3)C3(CCN(Cc4cccc5cccc(C)c45)CC3)C2=O)OC1=O
Result block: 6.74
